# Tested on: MARIMO;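 further: after 48 h exposure read by CellTiter-Glo luminescence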
# Assay protocol: cell viability relative to vehicle control; higher = less cytotoxic
# Condition summary: 10 µM; SRSF2 genotype: SRSF2 P95H/wt
Where a name gives a salt, the structure may show the parent alone.
Assay endpoint: cell viability (%)
Report the figure in % without appending any unit label.

[[record]]
compound = "O=C(NOCC(O)CO)c1cc(Br)c(F)c(F)c1Nc1ccc(I)cc1F (stereo unspecified)"
assay_endpoint = "cell viability"
result_unit = "%"
reported_result = 41.3


Task item: Name the recorded cell viability of the compound listed here: COC1CCN(C(=O)c2cc(Cc3n[nH]c(=O)c4ccccc34)ccc2F)CC1
Reply: 81.5

Task item: Quote cell viability reported for COc1ccc(NC(=O)c2ccc(C(=N)N(C)C)cc2)c(C(=O)Nc2ccc(Cl)cn2)c1 [Betrixaban maleate] please.
Reply: 86.5

Task item: Indicate the recorded cell viability value for this compound: O=C(O)CC(O)(CC(=O)OCc1ccc(O[C@@H]2O[C@H](CO)[C@@H](O)[C@H](O)[C@H]2O)cc1)C(=O)OCc1ccc(O[C@@H]2O[C@H](CO)[C@@H](O)[C@H](O)[C@H]2O)cc1 (stereo partly specified)
Reply: 103

Task item: Give me measured cell viability, please, for this compound: O=C1c2ccc(Nc3ccc(F)cc3F)cc2CCc2ccc(OC[C@H](O)CO)cc21 [Skepinone-L]
Reply: 91.7

Task item: Write down cell viability measured for item C[C@@H]1O[C@@H](O[C@@H]2[C@@H](O)[C@H](OCCc3ccc(O)c(O)c3)O[C@H](COC(=O)/C=C/c3ccc(O)c(O)c3)[C@H]2O)[C@H](O)[C@H](O)[C@H]1O [Isoacteoside]
Reply: 99

Task item: Tell me cell viability reported for COc1ccc(F)c(F)c1C(=O)c1cnc(NC2CCN(S(C)(=O)=O)CC2)nc1N
Reply: 11.3

Task item: Specify reported cell viability for the compound shown: CCCCc1oc2ccc(NS(C)(=O)=O)cc2c1C(=O)c1ccc(OCCCN(CCCC)CCCC)cc1 [Dronedarone HCl (Multaq)]
Reply: 0.56

Task item: Quickly give me recorded cell viability for CC1(C)C2CCC1(C)C(O)C2 (single isomer, unassigned; (+)) [(+)-Borneol]
Reply: 100

Task item: For the compound CC1(C)CC(=O)c2c(C(F)(F)F)nn(-c3ccc(C(N)=O)c(N[C@H]4CC[C@H](OC(=O)CN)CC4)c3)c2C1 , give its reported cell viability.
Reply: 29.4

Task item: Write down cell viability measured for item C=CC(=O)Nc1cccc(Nc2nc(Nc3ccc(NC4CN(CCF)C4)cc3OC)ncc2C(F)(F)F)c1
Reply: 22.3

Task item: Entry CCN(CC)CC(=O)Nc1c(C)cccc1C [Lidocaine hydrochloride] needs its cell viability filled in; supply it.
Reply: 101

Task item: Give cell viability for NC(=O)CCCSc1nc(N)nc(-c2c(Cl)cc3c4c(cccc24)COC3)n1
Reply: 29.3

Task item: Determine from records and report cell viability for O=C1C[C@@H]2[C@@H](CO)[C@H](O)C[C@@H]2O1
Reply: 105

Task item: Write down cell viability measured for item O=C(Nc1ccc(O)c(C(=O)O)c1)c1cccc(NC(=O)c2ccco2)c1
Reply: 97.2

Task item: # return recorded cell viability for input CCS(=O)(=O)Nc1ccc2[nH]c(O)c(C(=Nc3ccc(CN4CCCCC4)cc3)c3ccccc3)c2c1
Reply: 5.46

The reported measurements were obtained from the supplement of paper PMC10981050.
